Attribution: patent US20040235761A1

- Test system: influenza virus A/PR/8/34
- Method: Anti-influenza effect (plaque inhibition in MDCK cells)
- Format: cell-based
- Test Settings: PR/8, MDCK, 72 h, read-out: Inhibition rate (plaque inhibition rate)
Measured inhibition at 100 µg/mL, listed per entry for reference.
Just the number please, in %, no unit attached.

Examples from the recorded data:
{"Compound": "CC(=O)O[C@@H]1[C@H](OC(C)=O)[C@@H](CO)O[C@H]1n1cc(F)nc(C(N)=O)c1=O [Reference Example 12]", "inhibition at 100 µg/mL [%]": 78}
{"Compound": "CC(C)(C)C(=O)OCOP(=O)(OCOC(=O)C(C)(C)C)OC[C@H]1O[C@@H](n2ccnc(C(N)=O)c2=O)[C@H](O)[C@@H]1O [Example 6]", "inhibition at 100 µg/mL [%]": 100}

QUERY: Recorded inhibition at 100 µg/mL of CC(C)(C)C(=O)SCCOP(=O)(OCCSC(=O)C(C)(C)C)OC[C@H]1O[C@@H](n2ccnc(C(N)=O)c2=O)[C@H](O)[C@@H]1O [Example 2] , please.
RESULT: 100

QUERY: // returns reported inhibition at 100 µg/mL for input CC(=O)OC[C@H]1O[C@@H](n2cc(F)nc(C(N)=O)c2=O)[C@H](OC(C)=O)[C@@H]1OC(C)=O [Example 31]
RESULT: 44

QUERY: What does the record list as inhibition at 100 µg/mL for Cc1cn([C@@H]2O[C@H](CO)[C@@H](O)[C@H]2O)c(=O)c(C(N)=O)n1 [Example 11] ?
RESULT: 24

QUERY: Would you kindly share the measured inhibition at 100 µg/mL for NC(=O)c1nc(Cl)cn([C@@H]2O[C@H](CO)[C@@H](O)[C@H]2O)c1=O [Reference Example 7] ?
RESULT: 42

QUERY: # query: inhibition at 100 µg/mL of entry NC(=O)c1nc(F)cn([C@@H]2O[C@H](CO)[C@@H](O)[C@H]2O)c1=O [Example 32]
RESULT: 100

QUERY: Fill in: inhibition at 100 µg/mL of NC(=O)c1nccn([C@@H]2O[C@H](CO)[C@@H](O)[C@H]2O)c1=O [Example 29] is ___
RESULT: 100

QUERY: Would you mind telling me what inhibition at 100 µg/mL value was observed for CC(=O)OC[C@H]1O[C@@H](n2ccnc(C(N)=O)c2=O)[C@H](OC(C)=O)[C@@H]1OC(C)=O [Example 22] ?
RESULT: 33
